# TEST_SYSTEM: T1, IL-7 receptor (IL-7Rα/γc heterodimer) on primary human T cells (human, UniProt P16871 21-459; P31785 23-369)
# T1 sequence (looked up) 1: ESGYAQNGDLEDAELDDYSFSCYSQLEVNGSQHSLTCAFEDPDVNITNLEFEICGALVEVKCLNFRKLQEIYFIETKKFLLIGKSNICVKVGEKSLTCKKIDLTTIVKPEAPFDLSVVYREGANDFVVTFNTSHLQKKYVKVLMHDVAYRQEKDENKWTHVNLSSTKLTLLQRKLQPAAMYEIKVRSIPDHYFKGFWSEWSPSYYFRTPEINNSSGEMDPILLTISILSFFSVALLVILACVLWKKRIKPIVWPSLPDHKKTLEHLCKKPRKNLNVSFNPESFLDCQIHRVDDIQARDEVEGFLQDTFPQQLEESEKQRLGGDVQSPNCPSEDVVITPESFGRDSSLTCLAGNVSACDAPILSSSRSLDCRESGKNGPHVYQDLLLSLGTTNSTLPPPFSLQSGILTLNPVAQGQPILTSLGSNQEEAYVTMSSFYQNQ
# T1 sequence (looked up) 2: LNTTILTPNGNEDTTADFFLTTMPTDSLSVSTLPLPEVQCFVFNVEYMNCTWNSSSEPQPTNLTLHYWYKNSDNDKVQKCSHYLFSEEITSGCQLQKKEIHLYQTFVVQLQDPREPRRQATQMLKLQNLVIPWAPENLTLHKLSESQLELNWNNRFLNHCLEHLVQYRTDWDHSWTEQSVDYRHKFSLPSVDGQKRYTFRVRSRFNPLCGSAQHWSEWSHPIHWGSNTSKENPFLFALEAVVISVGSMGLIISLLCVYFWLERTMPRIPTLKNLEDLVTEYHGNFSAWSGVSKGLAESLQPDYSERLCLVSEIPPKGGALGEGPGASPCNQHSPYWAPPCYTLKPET
# TEST_DESCRIPTION: cell-based or functional assay
Bridges are numbered along the chain shown (N, C = ends). [ ]: non-standard residue; d: D form. hSer = N[C@@H](CCO)C(=O)O; Nle = CCCC[C@H](N)C(=O)O
REPORTED_PROPERTY: EC50 pSTAT5, CD4 Naive
Could you write the number and then its unit?

Below are worked cases with known answers.
CMP-114, CMP-108 conjugated to 30 kDa DBCO PEG at the N-terminus (ligand, disulfide 34-129, 47-141, 2-92; not fully specified (N-terminus); also: N-terminal azide conjugated to 30 kDa DBCO-PEG) DCDIEGKDGKQYESVL[Nle]VSIDQLLDS[Nle]KEIGSNCL[hSer]NEFNFFKRHICDANKEG[Nle]FLFRAARKLRQFLK[Nle]NSTGDF[hSer]LHLLKVSEGTTILLNCTGQVKGRKPAALGEAQPTKSL[hSer]ENKSLKEQKKLNDLCFLKRLLQEIKTCWNKIL[Nle]GTKEH-NH2
0.002 nM
CMP-036, synthetic IL-7 of SEQ ID NO: 3 (no N-terminal conjugation handle) (ligand, ends and bridges not checked) DCDIEGKDGKQYESVL[Nle]VSIDQLLDS[Nle]KEIGSNCL[hSer]NEFNFFKRHICDANKEG[Nle]FLFRAARKLRQFLK[Nle]NSTGDF[hSer]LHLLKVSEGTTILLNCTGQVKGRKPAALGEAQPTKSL[hSer]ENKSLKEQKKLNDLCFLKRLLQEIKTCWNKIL[Nle]GTKEH
0.005 nM

// switching to the query binder
Give the value of EC50 pSTAT5, CD4 Naive reported for the following: CMP-106, recombinant IL-7 V15W with His-tag (ligand, V15W is already in the entry, which also includes the C-terminal His-tag; also called IL-7 V15W (Recomb-HIS6)) DCDIEGKDGKQYESWLMVSIDQLLDSMKEIGSNCLNNEFNFFKRHICDANKEGMFLFRAARKLRQFLKMNSTGDFDLHLLKVSEGTTILLNCTGQVKGRKPAALGEAQPTKSLEENKSLKEQKKLNDLCFLKRLLQEIKTCWNKILMGTKEHVDHHHHHH
0.814 nM
